# measured-target: Torsin-1A (Homo sapiens) (UniProt O14656)
# Sequence (O14656 whole entry, looked up): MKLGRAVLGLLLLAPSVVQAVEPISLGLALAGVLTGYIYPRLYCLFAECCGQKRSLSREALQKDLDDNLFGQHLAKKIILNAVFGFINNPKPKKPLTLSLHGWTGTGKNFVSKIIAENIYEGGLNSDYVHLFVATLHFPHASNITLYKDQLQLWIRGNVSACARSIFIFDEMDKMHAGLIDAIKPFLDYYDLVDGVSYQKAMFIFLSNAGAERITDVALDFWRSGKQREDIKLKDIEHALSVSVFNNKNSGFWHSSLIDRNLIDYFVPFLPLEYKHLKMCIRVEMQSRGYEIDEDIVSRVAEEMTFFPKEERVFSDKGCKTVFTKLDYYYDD
# protocol-notes: torsin A binders from cell lysate, primary screen, small-molecule microarray, wild-type, 635/667 nm (AID 1149)
# measurement-parameters: COS7 hTOR1A-WT lysate, 635 nm fluorescence, higher = more signal
Lab note: anything with composite z-score at or over 0.6 counts as True; the rest go in False.

molecule: CC(=O)O[C@H]1C2=CO[C@H](C)[C@H]3[C@H]4C5=C([C@H](O)[C@H]6O[C@H]6C5=O)[C@H](OC4C)[C@@]23C(=O)[C@@H]2O[C@@H]21 (some centres not stated)
measured-target: Torsin-1A (Homo sapiens) (UniProt O14656)
classification: False

molecule: O=C(NN=C1C[C@@H](O)[C@@H](O)[C@@H]2[C@@H]3C(=O)N(C[C@@H]4CCCO4)C(=O)[C@@H]3CC[C@@H]12)OCc1ccccc1
measured-target: Torsin-1A (Homo sapiens) (UniProt O14656)
classification: True

molecule: C[n+]1ccc(-c2ccc(CO)cc2)cc1
measured-target: Torsin-1A (Homo sapiens) (UniProt O14656)
classification: False

molecule: CCCNC(=O)OC[C@H]1O[C@H](CCON=C(C)CCN2CCCc3nc(C)c(C)cc32)C=C[C@@H]1Oc1ccc(OC)cc1
measured-target: Torsin-1A (Homo sapiens) (UniProt O14656)
classification: False

molecule: CO[C@H]1COC(=O)CC=C[C@H](C)COC(=O)[C@@H](C)NC(=O)CC=C[C@@H]1C
measured-target: Torsin-1A (Homo sapiens) (UniProt O14656)
classification: True

molecule: Cc1ccc(S(=O)(=O)N[C@@H]2COC(=O)[C@@H](C)COC(=O)CC=C[C@H]2C)cc1
measured-target: Torsin-1A (Homo sapiens) (UniProt O14656)
classification: False

molecule: COc1ccc(O[C@H]2C=C[C@@H](c3ccccc3)O[C@@H]2CON=C(C)CCC(=O)OC[C@H]2O[C@H](c3ccccc3)C=C[C@@H]2Oc2ccc(OC)cc2)cc1
measured-target: Torsin-1A (Homo sapiens) (UniProt O14656)
classification: False
